Molecular target: T1, beta-catenin in DLD1 TCF/LEF luciferase reporter cells (UniProt P35222 1-781)
T1 sequence (looked up): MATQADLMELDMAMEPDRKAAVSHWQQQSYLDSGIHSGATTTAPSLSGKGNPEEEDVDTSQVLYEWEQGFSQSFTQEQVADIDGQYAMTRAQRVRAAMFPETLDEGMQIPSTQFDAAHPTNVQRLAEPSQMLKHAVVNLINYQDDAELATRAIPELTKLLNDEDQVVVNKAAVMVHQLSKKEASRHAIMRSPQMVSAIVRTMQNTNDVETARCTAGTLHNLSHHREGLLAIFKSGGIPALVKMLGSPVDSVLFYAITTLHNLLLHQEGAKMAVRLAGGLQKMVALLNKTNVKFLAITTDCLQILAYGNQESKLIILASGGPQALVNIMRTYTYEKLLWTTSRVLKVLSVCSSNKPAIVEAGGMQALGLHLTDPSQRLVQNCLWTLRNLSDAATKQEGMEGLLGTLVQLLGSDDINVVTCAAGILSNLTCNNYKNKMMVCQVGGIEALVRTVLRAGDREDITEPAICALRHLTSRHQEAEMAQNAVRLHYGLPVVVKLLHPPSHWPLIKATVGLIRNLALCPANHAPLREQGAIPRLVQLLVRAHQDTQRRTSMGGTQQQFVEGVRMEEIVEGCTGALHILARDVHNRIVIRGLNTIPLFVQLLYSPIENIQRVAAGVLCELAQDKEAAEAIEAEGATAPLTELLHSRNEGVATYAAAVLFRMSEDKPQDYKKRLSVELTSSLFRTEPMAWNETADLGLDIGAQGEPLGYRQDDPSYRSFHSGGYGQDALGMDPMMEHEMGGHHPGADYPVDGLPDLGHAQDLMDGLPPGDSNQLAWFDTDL
Assay: cell-based or functional assay
Starred links: 1 amine or outer side, 2 acyl side, 3 side chain; linkers in the order of their positions; H or OH if unused. Positions of bridges follow the written chain, without caps; N, C: chain ends. Non-standard residues stand in square brackets, D forms with d. Primed or numbered codes have the meaning given here. *: point of attachment. PyrS2″ = (S)-3-amino-1-((pent-4-en-1-yloxy)carbonyl)pyrrolidine-3-carboxylic acid (stapling residue), C=CCCCOC(=O)N1CC[C@@](N[*:1])(C(=O)[*:2])C1; B5(4) = 2,2-bis(4-pentenyl)glycine = 2-amino-2-(pent-4-en-1-yl)hept-6-enoic acid (stitching residue), C=CCCCC(CCCC=C)(N[*:1])C(=O)[*:2]; B5(3) = 2,2-bis(4-pentenyl)glycine (stitching residue), C=CCCCC(CCCC=C)(N[*:1])C(=O)[*:2]; Phe(2-Cl) = N[C@@H](Cc1ccccc1Cl)C(=O)O; Bta = N[C@@H](Cc1csc2ccccc12)C(=O)O; αAllylPro = C=CC[C@@]1(C(=O)O)CCCN1; tBuAla = CC(C)(C)C[C@H](N)C(=O)O; Leu(ol) = CC(C)C[C@H](N)CO; Alaol = C[C@@H](CO)N*
ASSAY ENDPOINT: DLD1 reporter assay Abs IC50 (µM)
Reply with just the number (in µM).

Guide cases for DLD1 reporter assay Abs IC50, answers given:
| BINDER | DLD1 reporter assay Abs IC50 [µM] |
| --- | --- |
| Ac-[αAllylPro]D[tBuAla][B5(3)]DDAAFN[PyrS2″][Phe(2-Cl)][Bta]-Alaol (staple 1-4, 4-11) [I-1081] | 10 |
| Ac-[αAllylPro]D[tBuAla][B5(4)]DDAAFN[PyrS2″][Phe(2-Cl)][Bta]Q-NHEt (staple 1-4, 4-11) [I-1079] | 14.5 |

// below: DLD1 reporter assay Abs IC50 requested for another binder
Task: DLD1 reporter assay Abs IC50 lookup needed for Ac-[αAllylPro]D[tBuAla][B5(4)]DDAAFN[PyrS2″][Phe(2-Cl)][Bta][Leu(ol)] (staple 1-4, 4-11) [I-1080] , thanks.
Result: 17.2

Sourced from patent US20240116985A1
